Sourced from patent US10081634B2

# IC50 per record follows
# Target: PRS (prolyl-tRNA synthetase) (Homo sapiens, UniProt P07814)
# Construct: the portion corresponding to PRS in cDNA of EPRS was subcloned; made in house
# Sequence (P07814 1007-1512 limits assumed): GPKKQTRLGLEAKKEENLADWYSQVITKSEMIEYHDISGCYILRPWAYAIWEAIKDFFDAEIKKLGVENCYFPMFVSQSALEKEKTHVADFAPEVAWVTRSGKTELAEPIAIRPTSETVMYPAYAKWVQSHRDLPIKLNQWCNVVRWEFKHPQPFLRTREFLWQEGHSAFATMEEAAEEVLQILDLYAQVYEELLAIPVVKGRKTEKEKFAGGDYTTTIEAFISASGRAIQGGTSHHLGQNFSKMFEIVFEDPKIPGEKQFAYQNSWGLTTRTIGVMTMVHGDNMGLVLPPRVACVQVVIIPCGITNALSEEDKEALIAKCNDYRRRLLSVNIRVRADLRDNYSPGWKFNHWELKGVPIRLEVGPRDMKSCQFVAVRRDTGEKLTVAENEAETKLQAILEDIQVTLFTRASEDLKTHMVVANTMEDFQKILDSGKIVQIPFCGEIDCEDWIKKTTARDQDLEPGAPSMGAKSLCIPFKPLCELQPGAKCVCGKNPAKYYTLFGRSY
# Assay overview: In vitro PRS enzyme activity inhibition experiment ([3H]proline, liquid scintillation)
# Type: biochemical
# Assay setup: purified PRS protein subcloned from EPRS cDNA; 37° C., 5 to 10 minutes; read-out: PRS IC50

{"columns": ["Molecule", "Target", "IC50"],
 "data": [
  ["CNC(C[C@H]1NCCC[C@@H]1O)Cn1cnc2cc(Cl)c(Cl)cc21 (stereo partly shown)", "PRS (prolyl-tRNA synthetase) (Homo sapiens, UniProt P07814)", "> 500 nM"],
  ["O=C(C[C@H]1NCCC[C@@H]1O)Cn1cnc2nc(C(F)(F)F)ccc21", "PRS (prolyl-tRNA synthetase) (Homo sapiens, UniProt P07814)", "> 500 nM"],
  ["O=C(C[C@H]1NCCC[C@@H]1O)Cn1c(CCO)nc2ccc(F)cc21", "PRS (prolyl-tRNA synthetase) (Homo sapiens, UniProt P07814)", "> 500 nM"],
  ["Cc1c(Cl)cnc2c1ncn2CC(O)C[C@H]1NCCC[C@@H]1O (stereo partly shown)", "PRS (prolyl-tRNA synthetase) (Homo sapiens, UniProt P07814)", "> 500 nM"],
  ["C[C@H](O)c1nc2ccccc2n1CC(=O)C[C@H]1NCCC[C@@H]1O", "PRS (prolyl-tRNA synthetase) (Homo sapiens, UniProt P07814)", "> 500 nM"],
  ["O=C(C[C@H]1NCCC[C@@H]1O)Cn1cnc2cc(Cl)c(Cl)cc21", "PRS (prolyl-tRNA synthetase) (Homo sapiens, UniProt P07814)", "< 100 nM"],
  ["O=C(C[C@H]1NCCC[C@@H]1O)Cn1ccc2cc(Cl)cnc21", "PRS (prolyl-tRNA synthetase) (Homo sapiens, UniProt P07814)", "100 to 500 nM"],
  ["CC(O)(C[C@H]1NCCC[C@@H]1O)Cn1cnc2ccccc21 (stereo partly shown)", "PRS (prolyl-tRNA synthetase) (Homo sapiens, UniProt P07814)", "> 500 nM"],
  ["O=C(C[C@H]1NCCC[C@@H]1O)Cn1cnc2ncc(Br)cc21", "PRS (prolyl-tRNA synthetase) (Homo sapiens, UniProt P07814)", "> 500 nM"],
  ["O=C(C[C@H]1NCCC[C@@H]1O)Cn1cnc2cc(Br)c(Br)cc21", "PRS (prolyl-tRNA synthetase) (Homo sapiens, UniProt P07814)", "< 100 nM"],
  ["OC(C[C@H]1NCCC[C@@H]1O)Cn1cnc2cc(Cl)c(Cl)cc21 (stereo partly shown)", "PRS (prolyl-tRNA synthetase) (Homo sapiens, UniProt P07814)", "100 to 500 nM"],
  ["OC(C[C@H]1NCCC[C@@H]1O)Cn1cnc2c(F)c(Br)ccc21 (stereo partly shown)", "PRS (prolyl-tRNA synthetase) (Homo sapiens, UniProt P07814)", "> 500 nM"],
  ["O=C(C[C@H]1NCCC[C@@H]1O)Cn1cnc2cc(F)c(F)cc21", "PRS (prolyl-tRNA synthetase) (Homo sapiens, UniProt P07814)", "100 to 500 nM"],
  ["O[C@H]1CCCN[C@@H]1CC(F)(F)Cn1cnc2cc(Cl)c(Cl)cc21", "PRS (prolyl-tRNA synthetase) (Homo sapiens, UniProt P07814)", "> 500 nM"],
  ["CO/N=C(/C[C@H]1NCCC[C@@H]1O)Cn1cnc2cc(Cl)c(Cl)cc21", "PRS (prolyl-tRNA synthetase) (Homo sapiens, UniProt P07814)", "> 500 nM"],
  ["Cc1c(Br)ccc2c1ncn2CC(=O)C[C@H]1NCCC[C@@H]1O", "PRS (prolyl-tRNA synthetase) (Homo sapiens, UniProt P07814)", "< 100 nM"],
  ["O=C(C[C@H]1NCCC[C@@H]1O)Cn1cnc2ccc(Br)cc21", "PRS (prolyl-tRNA synthetase) (Homo sapiens, UniProt P07814)", "< 100 nM"],
  ["O[C@H]1CCCN[C@@H]1CC(F)Cn1cnc2cc(Cl)c(Cl)cc21 (stereo partly shown)", "PRS (prolyl-tRNA synthetase) (Homo sapiens, UniProt P07814)", "> 500 nM"],
  ["O=C(C[C@H]1NCCC[C@@H]1O)Cn1nnc2ccc(Cl)cc21", "PRS (prolyl-tRNA synthetase) (Homo sapiens, UniProt P07814)", "> 500 nM"]
]}
